Tested on: Serratia marcescens
Test: MIC against Gram-negative bacteria: Serratia marcescens
Assay type: cell-based
Settings: S. marcescens; 10 h cultivation at 37° C.; 5×10^5 CFU/mL
property: MIC (μg/mL) S. marcescens (µg/mL)

- substance: "PRT144 (DKKVCSSNPCQNGGTCLNLHDSFFCICPPQWKGPLCS; listed as Homo sapiens)"
  property: "MIC (μg/mL) S. marcescens"
  measValue: 12.5
- substance: "PRT759 (RVDYCLLSDHGCEYSCVNMDRSFACQCPEGHVLRSDGKTCA; listed as Homo sapiens)"
  property: "MIC (μg/mL) S. marcescens"
  measValue: 25
- substance: "PRT189 (SIDACASSPCFNRATCYTDLSTDTFVCNCPYGFVGSRCE; listed as Homo sapiens)"
  property: "MIC (μg/mL) S. marcescens"
  measValue: 25
- substance: "PRT765 (VRDKCALGSHGCQHICVSDGAASYHCDCYPGYTLNEDKKTCS; listed as Homo sapiens)"
  property: "MIC (μg/mL) S. marcescens"
  measValue: 12.5
- substance: "PRT157 (VADPCASNPCHHGNCSSSSSSSSDGYLCICNEGYEGPNCE; listed as Homo sapiens)"
  property: "MIC (μg/mL) S. marcescens"
  measValue: 12.5
- substance: "PRT792 (YGVLCAETCQCVNGGKCYHVSGACLCEAGFAGERCE; listed as Homo sapiens)"
  property: "MIC (μg/mL) S. marcescens"
  measValue: 50
- substance: "PRT887 (LNDACISNPCNEGSNCDTNPVNGKAICTCPSGYTGPACS; listed as Homo sapiens)"
  property: "MIC (μg/mL) S. marcescens"
  measValue: 50
- substance: "PRT802 (SNRCQCQNGALCNPITGACVCAAGFRGWRCE; listed as Homo sapiens)"
  property: "MIC (μg/mL) S. marcescens"
  measValue: 12.5
- substance: "PRT153 (DCLACQGGSQRPCSGNGHCSGDGSRQGDGSCRCHMGYQGPLCT; listed as Homo sapiens)"
  property: "MIC (μg/mL) S. marcescens"
  measValue: 50
